Biological target: T1, human LAG-3 protein with hFc tag (hLAG-3-hFc protein) (human, UniProt P18627 23-450)
T1 construct: also called immunogen 1; LAG-3 extracellular domain protein; not shown: human IgG Fc fragment (hFc) of the pCpC vector
T1 sequence: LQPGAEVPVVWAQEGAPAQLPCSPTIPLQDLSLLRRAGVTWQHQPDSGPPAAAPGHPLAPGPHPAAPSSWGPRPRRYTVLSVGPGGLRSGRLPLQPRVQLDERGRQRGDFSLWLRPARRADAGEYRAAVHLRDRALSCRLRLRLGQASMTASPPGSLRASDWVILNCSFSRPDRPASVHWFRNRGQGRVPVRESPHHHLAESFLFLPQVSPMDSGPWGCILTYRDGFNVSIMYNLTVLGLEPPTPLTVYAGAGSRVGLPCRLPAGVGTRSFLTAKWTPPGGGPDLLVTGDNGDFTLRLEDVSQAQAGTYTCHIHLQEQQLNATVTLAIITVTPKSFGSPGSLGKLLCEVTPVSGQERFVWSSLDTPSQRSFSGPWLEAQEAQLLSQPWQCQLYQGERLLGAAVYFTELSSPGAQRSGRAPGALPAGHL
Assay: ELISA, hLAG-3-hFc coated; 6.6667 nM
readout type: OD450
Give me the value, and tack the unit on after it.

Per the record, 405B8H3 (LAG-3 mouse-human chimeric antibody) (antibody, V domains shown, also called mouse-human chimeric antibody 405B8H3) VH: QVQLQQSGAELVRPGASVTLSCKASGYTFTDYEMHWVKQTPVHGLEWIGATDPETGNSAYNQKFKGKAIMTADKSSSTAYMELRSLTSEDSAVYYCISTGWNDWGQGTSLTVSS VL: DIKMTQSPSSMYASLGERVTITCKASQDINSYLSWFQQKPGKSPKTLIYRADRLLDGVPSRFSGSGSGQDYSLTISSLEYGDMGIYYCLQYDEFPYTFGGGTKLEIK has OD450 of 3.54 OD450

OD450 reported for this binder 556F6B8 (LAG-3 mouse-human chimeric antibody) (antibody, V domains shown, also called 556F8B8) VH: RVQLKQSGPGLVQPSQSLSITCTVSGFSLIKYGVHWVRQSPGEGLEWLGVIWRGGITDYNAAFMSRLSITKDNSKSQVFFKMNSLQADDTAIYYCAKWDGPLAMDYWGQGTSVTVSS VL: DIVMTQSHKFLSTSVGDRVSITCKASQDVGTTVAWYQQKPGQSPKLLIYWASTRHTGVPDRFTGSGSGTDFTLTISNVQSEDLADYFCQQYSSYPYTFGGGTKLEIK : 3.73 OD450

# OD450 (binder: 105F1E10 (LAG-3 mouse-human chimeric antibody) (antibody, V domains shown) VH: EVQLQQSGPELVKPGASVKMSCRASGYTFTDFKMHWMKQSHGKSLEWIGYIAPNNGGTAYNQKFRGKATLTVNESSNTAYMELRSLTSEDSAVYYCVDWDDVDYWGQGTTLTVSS VL: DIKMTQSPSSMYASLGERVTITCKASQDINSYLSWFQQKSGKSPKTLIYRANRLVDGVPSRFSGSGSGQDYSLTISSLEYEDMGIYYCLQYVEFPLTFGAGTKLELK ) is 3.53 OD450

Record 409B11E12 (LAG-3 mouse-human chimeric antibody) (antibody, V domains shown) VH: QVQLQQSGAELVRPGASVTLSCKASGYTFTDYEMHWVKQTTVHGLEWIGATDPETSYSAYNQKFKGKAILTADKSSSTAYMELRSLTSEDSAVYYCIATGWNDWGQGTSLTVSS VL: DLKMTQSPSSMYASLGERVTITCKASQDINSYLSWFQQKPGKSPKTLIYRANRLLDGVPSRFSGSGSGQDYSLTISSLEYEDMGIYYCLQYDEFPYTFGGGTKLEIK , field OD450: 3.64 OD450
